Assay text: viability loss in pontine glioma line – cell-based, SU-DIPG-XVII, MIPE5.0, CellTiter-Glo, qHTS, dose response (AID 1347060);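 on AC50: cells exposed to compound for 48 hours before viability readout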
Condition label: CellTiter-Glo ATP luminescence
Records with an inconclusive call do not appear. Calls of active or inactive are those of the source. Cut-off not given; nearly all actives show AC50 up to about 26 µM.
One label from this list, please: 1 for active, 0 for inactive

Query :: Look up the recorded call for `Cc1cc(C)c(S(=O)(=O)N(CCc2cccc(Br)c2)Cc2ccc(-c3cccc(S(C)(=O)=O)c3)cc2)c(C)c1` in this test.
Result :: 0

Query :: What do you have for `C[C@@]1(c2ncncc2F)NC(=O)c2cc(-c3cn[nH]c3)ccc21` ?
Result :: 0

Query :: What do you have for `COCCOc1ccc2c(c1)ncn2-c1ccc2cccc(N3CCC(N)CC3)c2n1` ?
Result :: 1

Query :: What do you have for `CNS(=O)(=O)c1ccc2c(c1)/C(=C/c1[nH]c3c(c1CCCN1CCN(C)CC1)CCCC3)C(=O)N2` ?
Result :: 1

Query :: What do you have for `COc1cc2nc(-c3cc(F)ccc3O)nc(N[C@@H]3CNC[C@H]3C(C)(C)O)c2cc1OC` ?
Result :: 1

Query :: What do you have for `CC1=C(c2ccc(O)cc2)[C@H](c2ccc(OCCN3CCCCC3)cc2)Oc2cc(O)ccc21` ?
Result :: 1

Query :: What do you have for `Cc1cc(O)cc2c1[C@]1(C)CC[C@H]3C(C)(C)CCC[C@]3(C)[C@H]1C2` ?
Result :: 0

Query :: What do you have for `O=C(COCC(=O)N1CCN(C(c2ccccc2)c2ccccc2)CC1)Nc1ccc(Cl)cc1C(=O)O` ?
Result :: 0

Query :: What do you have for Clc1ccc(COC(Cn2ccnc2)c2ccc(Cl)cc2Cl)cc1 (centres undefined) ?
Result :: 1

Query :: What do you have for `COC(=O)N(C)c1c(N)nc(-c2nn(Cc3ccccc3F)c3ncccc23)nc1N` ?
Result :: 0

Query :: What do you have for `CONC(=O)Nc1ccc(-c2sc3c(c2CN(C)Cc2ccccc2)c(=O)n(-c2ccccc2)c(=O)n3Cc2c(F)cccc2F)cc1` ?
Result :: 0

Query :: What do you have for COc1cc2c(Nc3ccc(Cl)c(Cl)c3F)ncnc2cc1OCC1C[C@@H]2CN(C)C[C@@H]2C1 (some centres undefined) ?
Result :: 1

Query :: What do you have for `Cc1ccc(S(=O)(=O)Nc2nc3ccccc3nc2Nc2ccc3nsnc3c2)cc1` ?
Result :: 0

Query :: What do you have for `Nc1nc(-c2nn(Cc3ccccc3F)c3ncccc23)nc(N)c1N1CCOCC1` ?
Result :: 0

Query :: What do you have for `O=C(NO)C1(CS(=O)(=O)c2ccc(Oc3ccc(Cl)cc3)cc2)CCOCC1` ?
Result :: 0

Query :: What do you have for `N#Cc1cc(NC(=O)Nc2nnc(-c3ccncc3)s2)ccc1-c1cn[nH]c1` ?
Result :: 1

Query :: What do you have for `Cn1ncc(NC(=O)c2nc(-c3c(F)cccc3F)sc2N)c1N1CC[C@@H](N)[C@H](F)CC1` ?
Result :: 0

Query :: What do you have for `CC(=O)c1cc2c(o1)C(=O)c1ccccc1C2=O` ?
Result :: 1

Query :: What do you have for `CCN1CCN(Cc2ccc(-c3cc4c(N[C@H](C)c5ccccc5)ncnc4[nH]3)cc2)CC1` ?
Result :: 1
